molecular target: Tyrosine-protein kinase SYK (Homo sapiens)
Please assign not satisfied whenever IC50 is at or above 9 nM, and satisfied whenever it is below.

COMPOUND	CLASS NAME
COc1cc(Nc2nc(N[C@H]3CCCC[C@H]3N)n3nc(-c4ccccc4)nc3c2C(N)=O)cc(OC)c1 (relative stereo)	not satisfied
COc1cc(Nc2nc(N[C@H]3CCCC[C@H]3N)n3ncnc3c2C(N)=O)cc(OC)c1 (relative stereo)	satisfied
COc1cc(Nc2nc(NCCO)n3cnnc3c2C(N)=O)cc(OC)c1	not satisfied
COc1cc(Nc2nc(N[C@H]3CCCC[C@H]3N)n3nc(-c4cccc(OC)c4)nc3c2C(N)=O)cc(OC)c1 (relative stereo)	not satisfied

----------
target: Tyrosine-protein kinase Lck (Homo sapiens, UniProt P06239)
Sequence (P06239 whole entry): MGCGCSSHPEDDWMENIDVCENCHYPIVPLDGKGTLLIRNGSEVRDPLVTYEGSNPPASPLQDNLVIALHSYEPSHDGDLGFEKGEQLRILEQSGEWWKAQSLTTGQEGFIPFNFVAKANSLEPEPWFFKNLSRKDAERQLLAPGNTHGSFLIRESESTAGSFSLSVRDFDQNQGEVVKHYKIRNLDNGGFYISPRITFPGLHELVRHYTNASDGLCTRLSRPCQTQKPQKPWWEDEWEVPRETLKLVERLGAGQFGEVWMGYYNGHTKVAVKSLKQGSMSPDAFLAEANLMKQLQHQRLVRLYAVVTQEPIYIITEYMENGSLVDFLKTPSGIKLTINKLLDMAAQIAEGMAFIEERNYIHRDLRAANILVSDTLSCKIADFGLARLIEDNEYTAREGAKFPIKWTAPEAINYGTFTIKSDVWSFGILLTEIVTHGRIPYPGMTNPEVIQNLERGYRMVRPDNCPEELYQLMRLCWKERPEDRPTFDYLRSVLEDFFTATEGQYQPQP

COMPOUND	SYSTEM TESTED	IC50 (µM)
COc1cc(Nc2nc(N[C@H]3CCCC[C@H]3N)n3cnnc3c2C(N)=O)cc(OC)c1 (relative stereo)	Tyrosine-protein kinase Lck (Homo sapiens, UniProt P06239)	0.18
COc1cc(Nc2nc(N[C@H]3CCCC[C@H]3N)n3ncnc3c2C(N)=O)cc(OC)c1 (relative stereo)	Tyrosine-protein kinase Lck (Homo sapiens, UniProt P06239)	0.59

----------
Measured solubility by item
experiment: Aqueous solubility of the compound; format: physicochemical; conditions: water
PROPERTY MEASURED: solubility (µg/mL)

COMPOUND	PROPERTY MEASURED	READOUT UNITS	OBSERVED MEASUREMENT
COc1cc(Nc2nc(N[C@H]3CCCC[C@H]3N)n3ncnc3c2C(N)=O)cc(OC)c1 (relative stereo)	solubility	µg/mL	42
COc1cc(Nc2nc(N[C@H]3CCCC[C@H]3N)n3cnnc3c2C(N)=O)cc(OC)c1 (relative stereo)	solubility	µg/mL	351
COc1cc(Nc2nc(N[C@H]3CCCC[C@H]3N)n3nc(-c4ccccc4)nc3c2C(N)=O)cc(OC)c1 (relative stereo)	solubility	µg/mL	1.2
